Origin of the recorded values: the supplement of paper PMC12783771

Entries annotated with measured sfGFP reporter fluorescence
B1: library; numbered along this chain (parent)
chain: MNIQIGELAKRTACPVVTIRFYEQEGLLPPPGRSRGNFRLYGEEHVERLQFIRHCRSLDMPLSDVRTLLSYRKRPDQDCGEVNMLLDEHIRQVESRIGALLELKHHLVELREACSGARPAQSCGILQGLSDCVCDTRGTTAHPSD

Variants of: B1
Assay: sfGFP reporter fluorescence (15 h) (µM FITC); higher = stronger transcriptional activation
Details: library round: Round 0; ligand: 1 µM Pb
Give your answer as a number; write no unit.

Can you share its sfGFP reporter fluorescence? I mean this variant: V82E
0.0586

Can you share its sfGFP reporter fluorescence? I mean this variant: G6N
0.0599

Proceeding to the next variant to report its sfGFP reporter fluorescence.
Can you share its sfGFP reporter fluorescence? I mean this variant: Y41C
0.0592
